This collection of values is drawn from patent US9499490B2.

# targetOfAssay: human MetAP2 (Homo sapiens)
# Sequence (P50579 whole entry): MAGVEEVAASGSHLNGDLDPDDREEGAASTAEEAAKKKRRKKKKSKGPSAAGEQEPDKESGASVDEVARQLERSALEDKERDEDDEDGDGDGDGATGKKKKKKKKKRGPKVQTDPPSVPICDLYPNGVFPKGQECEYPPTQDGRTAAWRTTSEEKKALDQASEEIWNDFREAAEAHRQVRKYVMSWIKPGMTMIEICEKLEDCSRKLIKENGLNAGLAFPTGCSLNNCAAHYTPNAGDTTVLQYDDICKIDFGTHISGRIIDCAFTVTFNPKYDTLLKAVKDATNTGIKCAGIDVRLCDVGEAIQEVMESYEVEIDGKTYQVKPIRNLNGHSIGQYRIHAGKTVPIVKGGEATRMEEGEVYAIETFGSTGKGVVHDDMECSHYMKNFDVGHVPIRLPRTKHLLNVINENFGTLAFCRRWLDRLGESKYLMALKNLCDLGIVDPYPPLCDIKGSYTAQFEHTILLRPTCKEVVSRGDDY
pIC50: −log10 of the molar value.

compound	pIC50
NC(=O)NCc1cccc(Oc2c[nH]nc2-c2ccc(F)cc2)c1 [Example 1]	7.96
